Where do the numbers come from? From patent US20130310384A1.

Each entry below carries its recorded melting point.

As a guide, the following entries are already answered.
Output melting point of CC[C@@H](c1ccccc1)N(Cc1ccc(S(C)(=O)=O)cc1)S(=O)(=O)c1ccc(Cl)cc1 [Example 2] 61 to 63 °C

Please supply the value of reported melting point for the item CCC(c1ccc(C(F)(F)F)cc1)N(Cc1ccc(C(=O)O)cc1)S(=O)(=O)c1ccc(Cl)cc1 (stereo not shown) [Example 54] 108 to 110 °C

Read the entry CCC(CC)N(Cc1ccc(C#N)nc1)S(=O)(=O)c1ccc(F)cc1 [Example 73] and write its reported melting point. 118 to 120 °C

Answer with reported melting point of CCC(CC)N(Cc1ccc(C#N)cc1F)S(=O)(=O)c1ccc(F)cc1 [Example 36] 102 to 104 °C

Tell me melting point reported for COC(=O)c1ccc(CN(C(C)C)S(=O)(=O)c2ccc(F)cc2)cc1 [Example 45] 118 to 120 °C

Consider the compound CCC(CC)N(Cc1ccc(C(=O)OC)cc1)S(=O)(=O)c1ccc(F)cc1 [Example 32] and give its recorded melting point. 78 to 80 °C

Specify reported melting point for the compound shown: CC[C@@H](c1ccc(C#N)cc1)N(Cc1ccc(C(=O)O)cc1)S(=O)(=O)c1ccc(Cl)cc1 [Example 103] 132 to 133 °C

Give the measured melting point for CCC(c1ccc(Cl)nc1)N(Cc1ccc(C(=O)O)cc1)S(=O)(=O)c1ccc(Cl)cc1 (stereo not shown) [Example 89] 111 to 113 °C

Indicate its recorded melting point; the compound in question is C[C@@H](c1ccc(Cl)cc1)N(Cc1ccc(C(=O)O)cc1)S(=O)(=O)c1ccc(Cl)cc1 [Example 141] 163 to 165 °C

Find the measured melting point of CC[C@@H](c1ccccc1)N(Cc1ccc(C(=O)OC)cc1)S(=O)(=O)c1ccc(C(F)(F)F)cc1 [Example 18] and report it. 70 to 72 °C

More entries:
Read off the recorded melting point for CC[C@@H](c1ccccc1)N(Cc1ccc(C(=O)OC)cc1)S(=O)(=O)c1ccc(Cl)cc1 [Example 3] 108 to 110 °C

Specify measured melting point for CC[C@@H](c1ccc(C#N)cc1)N(Cc1ccc(C#N)cc1)S(=O)(=O)c1ccc(Cl)cc1 [Example 84] . 120 to 121 °C

Read off the recorded melting point for CCC(CC)N(Cc1ccc(S(C)(=O)=O)cc1)S(=O)(=O)c1ccc(Cl)cc1 [Example 31] 166 to 168 °C

Please list melting point recorded for the compound CC[C@@H](c1ccc(C(F)(F)F)cc1)N(Cc1ccc(C(=O)OC)cc1)S(=O)(=O)c1ccc(Cl)cc1 [Example 122] 123 to 125 °C

Quick one: give measured melting point for CCC(CC)N(Cc1ccc(C(=O)OC)cn1)S(=O)(=O)c1ccc(F)cc1 [Example 34] 117 to 119 °C

Determine from records and report melting point for CC[C@@H](c1ccccc1)N(Cc1ccc(C(=O)OC)c(F)c1F)S(=O)(=O)c1ccc(Cl)cc1 [Example 124] 87 to 89 °C
